Entries and their pIC50
# system: Genome polyprotein (dengue virus type 2)
# Assay type: functional, Thailand/16681/1984
pIC50: −log10 of the molar value.

Examples with their reported pIC50 follow.
>>> result_value("CCn1c(=O)c(N2C[C@H]3OCCN(C(C)=O)[C@H]3C2)nc2ccccc21")
"< 4.00"
>>> result_value("NCC1CCN(C(=O)c2cc(Cl)cc(NC(=O)OCc3ccccc3)c2)CC1")
"< 4.00"
>>> result_value("O=C(Nc1ccc2c(c1)CNC2)c1ccc2ncsc2n1")
"< 4.00"
>>> result_value("O=C(Nc1cc(Cl)cc(C(=O)N2CCC[C@H]2c2nnn[nH]2)c1)OCc1ccccc1")
"< 4.00"
>>> result_value("NCc1cccc(NC(=O)c2cc(NC(=O)OCc3ccccc3)cc3c2OC(F)(F)O3)c1")
"< 4.00"

Ask: Find the recorded pIC50 belonging to CC(C)CNC(=O)c1cc(Cl)ccc1NS(=O)(=O)c1ccc(Oc2ccccc2Cl)cc1 and report it.
Reply: 4.89

Ask: Find the recorded pIC50 belonging to CC(C)(C)c1cc(N2CCN(c3cccc4[nH]ncc34)CC2)nc(C(=O)O)n1 and report it.
Reply: < 4.00

Ask: Find the recorded pIC50 belonging to CCc1cc(Br)cc2c(Cc3ccc(-c4nnn[nH]4)cc3)c[nH]c12 and report it.
Reply: 4.92

Ask: Find the recorded pIC50 belonging to Cc1ccc(Oc2ncccc2C#N)c(-c2ccc3[nH]c(C(=O)O)cc3c2)c1 and report it.
Reply: 4.06

Ask: Find the recorded pIC50 belonging to CCOc1cccc(-c2ccc(S(=O)(=O)Nc3cc(F)c(Cl)cc3C(=O)O)cc2)c1 and report it.
Reply: 5.29

Ask: Find the recorded pIC50 belonging to O=C(Nc1ccc2c(c1)CNC2)c1cccc2[nH]c(C(F)(F)F)cc12 and report it.
Reply: 4.04

Ask: Find the recorded pIC50 belonging to NCc1cccc(NC(=O)c2cccc3c2CCC3)c1 and report it.
Reply: < 4.00

Ask: Find the recorded pIC50 belonging to CCCn1ncc2c(C(=O)Nc3ccc4c(c3)CNC4)cc(Cl)cc21 and report it.
Reply: < 4.00

Ask: Find the recorded pIC50 belonging to O=C(Nc1ccc2c(c1)CNC2)c1cc(F)cc(C=C2CCS(=O)(=O)CC2)c1 and report it.
Reply: < 4.00

---

# system: Genome polyprotein (dengue virus type 2)
# Assay type: functional, Thailand/16681/1984
pIC50: −log10 of the molar value.
Entries and their pIC50

Examples with their reported pIC50 follow.
>>> result_value("O=C(Nc1ccc2c(c1)CNC2)c1cc(Br)cc2c1nc1n2CCCC1")
4.62
>>> result_value("O=C(O)c1cc(Cl)ccc1S(=O)(=O)NC1CCN(c2nc(C3CC3)cc(C(F)(F)F)n2)CC1")
4.81
>>> result_value("Cn1ccnc1COc1cccc([C@H](NC(=O)OCc2ccccc2)C(=O)Nc2cccc(CN)c2)c1")
"< 4.00"

Ask: Find the recorded pIC50 belonging to C=CC[C@H](Nc1cccc(C2(C(=O)O)CCC2)c1)c1cc(Cl)cc(NC(=O)OCc2ccccc2)c1 and report it.
Reply: 4.78

Ask: Find the recorded pIC50 belonging to Cc1nccn1-c1ccc(Cl)cc1C(=O)Nc1cccc(CN)c1 and report it.
Reply: < 4.00

Ask: Find the recorded pIC50 belonging to CCNC(=O)Nc1cc(Cl)cc(C(=O)Nc2ccc([C@H](CC)Cc3nnn[nH]3)cc2)c1 and report it.
Reply: < 4.00

Ask: Find the recorded pIC50 belonging to O=C1CCc2cc(C(=O)Nc3ccc4c(c3)CNC4)cc(F)c2N1 and report it.
Reply: < 4.00

Ask: Find the recorded pIC50 belonging to NCc1cccc(NC(=O)[C@H](NC(=O)c2ccccc2Cl)c2ccc(OCc3ccccc3)cc2)c1 and report it.
Reply: 4.34

Ask: Find the recorded pIC50 belonging to NCc1ccc2c(c1)N(C(=O)[C@@H](NC(=O)OCc1ccccc1)c1ccc(OCc3ccccc3)cc1)CC2 and report it.
Reply: < 4.00

---

Entries and their IC50
# system: Genome polyprotein (dengue virus type 2)
# Type: functional, Thailand/16681/1984

Examples with their reported IC50 follow.
>>> result_value("CCc1n[nH]cc1-c1cccc([C@H](NC(=O)OCc2ccccc2)C(=O)Nc2cccc(CN)c2)c1")
"> 99.5 µM"
>>> result_value("NCc1cccc(NC(=O)[C@H](NC(=O)OCc2ccccc2)C2CCNCC2)c1")
"> 99.5 µM"
>>> result_value("CCCC[C@H](NC(C)=O)C(=O)N[C@H](C(=O)NCc1ccc(CN)cc1)c1ccc(OCc2ccccc2)cc1")
"77.3 µM"
>>> result_value("N[C@H]1CCN(c2ccc(NC(=O)c3cc(Cl)cc(NC(=O)OCc4ccccc4)c3)cc2)C1")
"35.4 µM"
>>> result_value("NCc1cccc(NC(=O)[C@H](NC(=O)OCc2ccccc2)c2ccc(OCc3ccncn3)cc2)c1")
"99.2 µM"

Ask: Find the recorded IC50 belonging to O=C(O)c1cc2cc(-c3cc(Cl)cc4ncccc34)ccc2[nH]1 and report it.
Reply: 41.5 µM

Ask: Find the recorded IC50 belonging to CCn1cc(-c2cnn(-c3ccccc3)c2)nc(N2CC[C@@H](CO)C2)c1=O and report it.
Reply: > 99.5 µM

Ask: Find the recorded IC50 belonging to CS(=O)(=O)c1cncc(-c2cc(F)cc(C(=O)Nc3ccc4c(c3)CNC4)c2)c1 and report it.
Reply: > 99.5 µM

---

# system: Genome polyprotein (dengue virus type 2, UniProt P29990)
# Sequence (P29990 1346-1475 limits assumed): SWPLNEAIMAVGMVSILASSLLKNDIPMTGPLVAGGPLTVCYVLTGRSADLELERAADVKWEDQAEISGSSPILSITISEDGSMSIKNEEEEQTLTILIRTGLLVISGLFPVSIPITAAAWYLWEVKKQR
# Sequence (P29990 1476-2093 limits assumed): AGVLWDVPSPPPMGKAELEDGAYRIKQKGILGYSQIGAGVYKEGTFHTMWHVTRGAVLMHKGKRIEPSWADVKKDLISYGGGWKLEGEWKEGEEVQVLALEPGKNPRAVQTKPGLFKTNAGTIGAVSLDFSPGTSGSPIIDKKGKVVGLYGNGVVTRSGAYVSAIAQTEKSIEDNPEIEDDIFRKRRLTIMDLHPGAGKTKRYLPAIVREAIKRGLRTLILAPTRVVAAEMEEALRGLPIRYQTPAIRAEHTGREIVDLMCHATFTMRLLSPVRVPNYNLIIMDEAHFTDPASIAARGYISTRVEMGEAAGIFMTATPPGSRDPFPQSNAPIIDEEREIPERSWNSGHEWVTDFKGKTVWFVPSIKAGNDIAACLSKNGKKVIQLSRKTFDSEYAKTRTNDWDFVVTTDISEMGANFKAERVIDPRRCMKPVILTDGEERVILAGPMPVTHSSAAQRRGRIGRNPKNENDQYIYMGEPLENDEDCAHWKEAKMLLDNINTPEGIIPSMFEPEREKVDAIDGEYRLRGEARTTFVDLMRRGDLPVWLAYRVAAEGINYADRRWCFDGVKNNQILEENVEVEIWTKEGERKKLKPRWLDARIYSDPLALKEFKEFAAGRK
# Type: functional, Thailand/16681/1984
observable: IC50

Examples with their reported IC50 follow.
>>> result_value("O=C(Nc1cc(Cl)cc(-c2ccn3c(C(=O)O)cnc3c2)c1)OCc1ccccc1")
"> 99.5 µM"
>>> result_value("CCc1cc(Cl)cc(C(=O)Nc2ccc3c(c2)CNC3)c1")
"> 99.5 µM"
>>> result_value("CNC(=O)CN1CCC([C@@H](NC(=O)OCc2ccccc2)C(=O)Nc2cccc(CN)c2)CC1")
"> 99.5 µM"

Next item in the queue.
Ask: Find the recorded IC50 belonging to O=C(O)c1cc(Cl)cc(NS(=O)(=O)c2ccc(-c3ccc(F)cc3)cc2)c1 and report it.
Reply: 90.6 µM

---

# system: Genome polyprotein (dengue virus type 2, UniProt P29990)
# Assay type: functional, Thailand/16681/1984
observable: IC50

Examples with their reported IC50 follow.
>>> result_value("NCc1cccc(NC(=O)c2cc(C(F)(F)F)nn2CC2CCC2)c1")
"> 99.5 µM"
>>> result_value("NCc1cccc(NC(=O)[C@H]2[C@H]3CCCC[C@H]3[C@@H]2NC(=O)OCc2ccccc2)c1")
"95.5 µM"
>>> result_value("O=C(Nc1ccc2c(c1)CNC2)c1cc(Cl)ccc1-n1cnnn1")
"> 99.5 µM"

Ask: Find the recorded IC50 belonging to NCc1cccc(NC(=O)c2nc(=O)cc(NC(=O)OCc3ccccc3)[nH]2)c1 and report it.
Reply: > 99.5 µM

Ask: Find the recorded IC50 belonging to N=C(N)Nc1ccc(NC(=O)Oc2ccccc2)cc1 and report it.
Reply: > 59.8 µM

Ask: Find the recorded IC50 belonging to CCCC[C@H](N)C(=O)N[C@H](C(=O)NCc1ccc(C(N)=O)cc1)c1ccc(OCc2ccccc2)cc1 and report it.
Reply: > 99.5 µM

Ask: Find the recorded IC50 belonging to CNC(=O)[C@H](Nc1cccc(N)n1)c1cc(Cl)cc(CN)c1 and report it.
Reply: > 99.5 µM

Ask: Find the recorded IC50 belonging to CC(C)O[C@]1(C)C(=O)Nc2cc(F)cc(C(=O)Nc3ccc4c(c3)CNC4)c21 and report it.
Reply: > 99.5 µM

Ask: Find the recorded IC50 belonging to CC1CCN(CCCCNC(=O)C2CCN(c3ccc(C=O)cc3)CC2)CC1 and report it.
Reply: > 99.9 µM

Ask: Find the recorded IC50 belonging to C[C@@H](CS(C)(=O)=O)NC(=O)c1cc(Cl)ccc1NS(=O)(=O)c1ccc(Oc2ccccc2Cl)cc1 and report it.
Reply: 80.9 µM

---

Entries and their IC50
# system: Genome polyprotein (dengue virus type 2, UniProt P29990)
# Assay type: functional, Thailand/16681/1984

>>> result_value("CCn1cc(C(=O)Nc2ccccc2)nc(N2CC[C@@H](CO)C2)c1=O")
"> 99.5 µM"
>>> result_value("Clc1cc([C@H](C#Cc2ccccc2)Nc2ccc3c(c2)CNC3)c2cn[nH]c2c1")
"> 99.5 µM"

Next item in the queue.
Ask: Find the recorded IC50 belonging to O=C(Nc1cc(Cl)cc(C(=O)Nc2cncc(C(=O)O)c2)c1)OCc1ccccc1 and report it.
Reply: 70 µM

---

Entries and their IC50
# system: Genome polyprotein (dengue virus type 2)
# Type: functional, Thailand/16681/1984

Examples with their reported IC50 follow.
>>> result_value("C#C[C@H](Nc1cccc(C(=O)O)c1)c1cc(Cl)cc2[nH]ncc12")
"> 100 µM"
>>> result_value("NCCOc1ccnc(NS(=O)(=O)c2ccc(Oc3ccccc3Cl)cc2)c1")
"> 100 µM"

Ask: Find the recorded IC50 belonging to CNC(=O)[C@H](Nc1cc(CN)cc(-c2nn[nH]n2)c1)c1cc(Cl)cc(C2CC2)c1 and report it.
Reply: > 100 µM

Ask: Find the recorded IC50 belonging to O=C1Cc2c(cccc2C(=O)Nc2ccc(-c3cccnc3)cn2)N1 and report it.
Reply: > 100 µM
